assay: Pharmacokinetics; conditions: both, rhesus monkey, plasma, sc, 3 mg/kg
Listing: Tmax of selected molecules
The figure you give is taken to be in h; do not add the unit.

The molecule listed as Clc1ccc2c(c1)N=C(N1CCNCC1)c1ccccc1N2 [N-desmethylclozapine] has a reported Tmax of 24

Continuing:
Lookup result for CN1CCN(C2=Nc3cc(Cl)ccc3Nc3ccccc32)CC1 [clozapine] ; measured Tmax: 2.67

----------
test: Pharmacokinetics; conditions: both, rhesus monkey, CSF, sc, 3 mg/kg
Below, each of the molecules is paired with its reported Tmax value.
Kindly answer with a numeric value in h, unit omitted.

The recorded Tmax for Clc1ccc2c(c1)N=C(N1CCNCC1)c1ccccc1N2 [N-desmethylclozapine] is 24

Now consider a different molecule.
Lab book: Tmax of CN1CCN(C2=Nc3cc(Cl)ccc3Nc3ccccc32)CC1 [clozapine] noted as 2.67

meta.source: paper PMC5522181
